Experiment: AUC in mouse at 5 mg/kg, po
Type: ADME, organism-based, Plasma
Set-up: dose 5 mg/kg, route oral
Settings: blood
PROPERTY_LABEL: AUC (ng·h/mL)

Worked examples, 3 molecules total:
N#Cc1c(O)c2c(-c3ccc(-c4ccccc4O)cc3)csc2[nH]c1=O; 80
Cc1ccc(-c2ccc(-n3c(Cl)cc4[nH]c(=O)c(C#N)c(O)c43)cc2)cc1; 17000
COc1cccc(-c2ccc(-n3c(Cl)cc4[nH]c(=O)c(C#N)c(O)c43)cc2)c1O; 892

A = COc1cccc(-c2ccc(-n3c(Cl)cc4[nH]c(=O)c(-c5ccccc5)c(O)c43)cc2)c1O
B = N#Cc1c(O)c2c(cc(Cl)n2-c2ccc(-c3ccsc3)cc2)[nH]c1=O
C = COc1cccc(-c2ccc(-n3ccc4[nH]c(=O)c(C#N)c(O)c43)cc2)c1O
D = COc1cccc(-c2ccc(-n3c(Cl)cc4[nH]c(=O)c(-c5cccc(C(=O)O)c5)c(O)c43)cc2)c1O
E = CCc1ccc(-n2c(Cl)cc3[nH]c(=O)c(-c4ccccc4)c(O)c32)cc1
Q: Please rank these molecules by AUC in descending order. Return the labels ranked in the requested order, please.
A: A, B, E, D, C
